Test system: K. pneumoniae (ATCC10031)
Assay: 50% growth inhibitory concentration (IC50) determination assay
Assay type: cell-based
Settings: Klebsiella pneumoniae, Iso-Sensitest broth, 0.098 = detection limit
parameter: IC50

Would you please look over these solved cases?
CNc1cc(F)c(F)c2c1[nH]c1ncc(-c3cnc4c(c3)c(=O)c(C(=O)O)cn4CC3CCCO3)c(N3CCOCC3)c12 (stereo not drawn); 0.19 µM
CNc1cc(F)c(F)c2c1[nH]c1ncc(-c3cnc4c(c3)c(=O)c(C(=O)O)cn4C)c(N3CC[C@H]4CN(C)C[C@H]43)c12 [Example 3.03A]; < 0.098 µM
CNc1c(F)cc(F)c2c1[nH]c1ncc(-c3cnc4c(c3)c(=O)c(C(=O)O)cn4C)c(N3CCOCC3)c12; < 0.098 µM
CNc1c(F)c(F)cc2c1[nH]c1ncc(-c3cnc4c(c3)c(=O)c(C(=O)O)cn4C3CCNC3)c(N3CCCC3)c12 (stereo not drawn); < 0.098 µM
CNc1cc(F)cc2c1[nH]c1ncc(-c3cnc4c(c3)c(=O)c(C(=O)O)cn4C)c(N3CCC(F)(CN(C)C)C3)c12 (stereo not drawn); < 0.098 µM

Next up:
Input: Please give the documented IC50 of `CNc1cc(F)c(F)c2c1[nH]c1ncc(-c3cnc4c(c3)c(=O)c(C(=O)O)cn4NCC(F)(F)F)c(N(C)C)c12`
Output: 0.275 µM

* * *

Test: Single dose PK study (SDPK) in female CD-1 mouse
Format: in vivo
Details: MOUSE IV, 1.0 mg/kg-Solution
Threshold check on AUC total: at or above 200 ng·h/mL gives class 1, strictly below gives class 0.

CNc1cc(F)c(F)c2c1[nH]c1ncc(-c3cnc4c(c3)c(=O)c(C(=O)O)cn4C)c(N3CCC(O)CC3)c12 [Example 1.43]; class 1
CNc1cc(F)c(F)c2c1[nH]c1ncc(-c3cnc4c(c3)c(=O)c(C(=O)O)cn4C)c(N3CCC4(CN(C)CCO4)C3)c12 (stereo not drawn) [Example 1.202]; class 0

Input: Quick check: does CCn1cc(C(=O)O)c(=O)c2cc(-c3cnc4[nH]c5c(NC)cc(F)c(F)c5c4c3N3CC4CC3CO4)cnc21 (stereo not drawn) [Example 1.05] have AUC total greater than or equal to 200 ng·h/mL?
Output: class 0

Input: Quick check: does CNc1cc(F)c(F)c2c1[nH]c1ncc(-c3cnc4c(c3)c(=O)c(C(=O)O)cn4CCN(C)C)c(N(C)C)c12 [Example 1.22] have AUC total greater than or equal to 200 ng·h/mL?
Output: class 0

Input: Quick check: does CNc1cc(F)c(F)c2c1[nH]c1ncc(-c3cnc4c(c3)c(=O)c(C(=O)O)cn4C)c(N3CC(N(C)C)C4(CC4)C3)c12 (stereo not drawn) [Example 1.207] have AUC total greater than or equal to 200 ng·h/mL?
Output: class 0

* * *

Catalogue of solubility thermodynamic values
Experiment: Lyophilisation solubility assay (LYSA)
Assay type: physicochemical
Details: phosphate buffer, pH 6.5, aqueous buffer, thermodynamic from solid, 0.05 M phosphate buffer, HPLC-UV
Express the result in µg/mL but write the number alone.

Would you please look over these solved cases?
CNc1cc(F)c(F)c2c1[nH]c1ncc(-c3cnc4c(c3)c(=O)c(C(=O)O)cn4NC)c(N3CCCC(CN(C)C)C3)c12 (stereo not drawn) [Example 1.186]; 104
CNc1cc(F)cc2c1[nH]c1ncc(-c3cnc4c(c3)c(=O)c(C(=O)O)cn4NC)c(N3C[C@@H]4CCN(C)[C@@H]4C3)c12 [Example 3.17B]; 125
CNc1c(F)c(F)cc2c1[nH]c1ncc(-c3cnc4c(c3)c(=O)c(C(=O)O)cn4C)c(N3CCOC(CN(C)C)C3)c12 (stereo not drawn) [Example 1.78]; 530
CNc1cc(F)c(F)c2c1[nH]c1ncc(-c3cnc4c(c3)c(=O)c(C(=O)O)cn4NC)c(N3CC4[C@H](CCN4C)C3)c12 (stereo partly drawn) [Example 1.193]; 16
CNc1cc(F)c(F)c2c1[nH]c1ncc(-c3cnc4c(c3)c(=O)c(C(=O)O)cn4C)c(N3CCC(N(C)C)CC3)c12 [Example 1.182]; 147

Input: Please give the documented solubility thermodynamic of CNc1cc(F)cc2c1[nH]c1ncc(-c3cnc4c(c3)c(=O)c(C(=O)O)cn4NC)c(N3CCC4(C)CN(C)CC34)c12 (stereo not drawn) [Example 1.273]
Output: 468
